Reference source for all entries: the supplement of paper PMC9170038

test system: MS2 coat protein; assay: apparent KD of MS2 coat protein; designed switch direction (-1 OFF switch, 1 ON switch): -1; higher = weaker reporter binding; conditions: input ligand: microRNA oligo, concentration not stated
measurementType: apparent KD of MS2 coat protein (nM)
Kindly answer with a numeric value in nM, unit omitted.

apparent KD of MS2 coat protein reported for this sequence UGUUGUCGCGCAGGAUAUGAGGAUCACCCAUAUCAGGAUAUCGAAAGAGAAUUUCUGAGGAUCACCCAGAAGGGCGGGACAACU [pwkr exNG2 2xF5 2xFMN.34] (Eterna round: R96, puzzle: Exclusion NG 2) : 35.6

apparent KD of MS2 coat protein reported for this sequence GUCAGCUCGUGAGGAUAUGCACAUGAGGAUCACCCAUGUAAGAUCAAGCUGCUUCGGCAGCAAGUGCAGAAGGUACGAGCUGAC [ENG2/9-C1] (Eterna round: R96, puzzle: Exclusion NG 2) : 207

apparent KD of MS2 coat protein reported for this sequence AGCUGUGGCCGAGGAUAUCUAAUAUCUCAAACCGAAAUAUAAUCGGACAUGAGGAUCACCCAUGUAGAGAAGGCGGUCUCAGCA [Eli eng2 - 064] (Eterna round: R96, puzzle: Exclusion NG 2) : 23.6

apparent KD of MS2 coat protein reported for this sequence UUAUUAUAUGUAGGAUAUGCAUAUUAUUAUUAUGCAGAAGGACAUGAGGAUCACCCAUGUAUAUUAUUAUUAUAUGUUAUAUAU [Title] (Eterna round: R96, puzzle: Exclusion NG 1) : 20.9

apparent KD of MS2 coat protein reported for this sequence UUUUUAUAUGAAGGAUAUACUUAACAUGAGGAUCACCCAUGUGGUGUUGUGAGUGAGUGAGUUUAGUAGAAGGUCAAUGAUUUA [JMF's solution 62] (Eterna round: R96, puzzle: Exclusion NG 2) : 414

apparent KD of MS2 coat protein reported for this sequence AGUACUUUCACGAAAGUGAAAGUACAAAUGAGCUUUUGAACAUGAGGAUCACCCAUGUCCUCAUAAGCUCGUCUUAA [Mat - Sensor v2 - var 2 - Mod - D175] (Eterna round: R96, puzzle: Sensor v2, turn-off variant 2) : 458

====

system: MS2 coat protein; assay: apparent KD of MS2 coat protein; designed switch direction (-1 OFF switch, 1 ON switch): 1; higher = weaker reporter binding; conditions: input ligand: none
measurementType: apparent KD of MS2 coat protein (nM)
Kindly answer with a numeric value in nM, unit omitted.

apparent KD of MS2 coat protein reported for this sequence GGAAGGAGGUCAGGAUAUGGAUGGAAGGUACAUGAGGAUCACCCAUGUUACGGAGGAAGGAAACGUUAGAAGGGAUAAGGAAGG [AK SSNG2-V2-2.1] (Eterna round: R96, puzzle: Same State NG 2) : 31.8

apparent KD of MS2 coat protein reported for this sequence CUGAGCAGUCAAGGAUAUCACGUCGUUUAGACGUGAGAAGGUGAUUAAUACAUGAGGAUCACCCAUGUAAUACAUGAAGCUCAG [SSNG1/11-A3] (Eterna round: R96, puzzle: Same State NG 1) : 42.5

apparent KD of MS2 coat protein reported for this sequence GAGUAGUUGGGAGGAUAUGCAUUGUUAUAGAAUGCAGAAGGUUUUAACAUGAGGAUCACCCAUGUAGGACUAUUCCUGUGUAUC [Parity 71 - Jieux - Same State NG 1] (Eterna round: R96, puzzle: Same State NG 1) : 15.6

apparent KD of MS2 coat protein reported for this sequence GCCGGCUGGUGAGGAUAUGGCGCCUUGUUGGUGCCAGAAGGCAUGUCAAUUGACAUGAGGAUCACCCAUGUGUUGUCGUUGGCG [salish99_SSNG1_r04_611] (Eterna round: R96, puzzle: Same State NG 1) : 459

====

tested on: K4 kissing-loop RNA reporter; assay: apparent KD of K4 kissing-loop reporter; higher = weaker reporter binding; conditions: Eterna round: R107; input ligand: theophylline 20 uM;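 note: bound reporter read as fluorescence of individual clusters on recovered sequencing chips by microscopy, with normalized cluster intensities fitted with a binding model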
For each entry below, report its apparent KD of K4 kissing-loop reporter value.
Kindly answer with a numeric value in nM, unit omitted.

apparent KD of K4 kissing-loop reporter reported for this sequence UGAUACCAGACUGAUACCAGCCAGUGAUGUUGGCUAAGCCGAAGAGGUGUCAUAGACACCGGCCCUUGGCAGCAGUCUGGUAUCU [#07 K4 Theophylline B Exclusion] : 108

apparent KD of K4 kissing-loop reporter reported for this sequence GGAUAGGACAGAGGAUAUCCAGUGAUGUUGGAGAAUUCUCCUUCAUCAUGUCACAAAAGUGGCAUGGGAGAAGGCUGUCCUAUCG [Mod of Eli's FmnBX 29 v3] : 899

apparent KD of K4 kissing-loop reporter reported for this sequence GGCAGUGAUGUUGCCAGUGGCAGAUUAGAAGGAGCGUGGUGAGACACAGGUAGGUCGCUAAUUGAAAUUGCUGUCACUAAAAUGC [#6] : 368

apparent KD of K4 kissing-loop reporter reported for this sequence UGUCGAGUGAUGUUCGAUGUGGUGCAUGCAGAGGAUAUAGGGUGGGCUAGAAGGCUGAAAAGUGCUUCGAGUGAUGUUCGAAGAU [Exclusion FMN A GF9] : 100

apparent KD of K4 kissing-loop reporter reported for this sequence UGACUGGAUUGAAGGAGCGCUAAACUCCUAGUGAUGUUAGGGACACAAGACAAAGUCUUGAGGCAGGUAGGUCGCAAUCUAGUCU [FiskerMod 5 - Jieux - Same State - Arginine B] : 310

apparent KD of K4 kissing-loop reporter reported for this sequence CGAUUCAUGGCGGCCGCCACUCGCGAAGCUCCCGUUACGAUGUCCGCAACAGUGAUGUUGUUGCCGAGGACCGGGCCGAGAUCCA [theeternabot_exclusion_KL_Trp_B_31] : 211

====

system: MS2 coat protein; test: apparent KD of MS2 coat protein, switch OFF state (with FMN for OFF switches, without FMN for ON switches); designed switch direction (-1 OFF switch, 1 ON switch): -1; higher = weaker reporter binding; conditions: FMN input: 0 or 200 uM; Eterna round: R93 (includes R88 designs)
measurementType: apparent KD of MS2 coat protein

apparent KD of MS2 coat protein reported for this sequence AAAAAGUGAGGAUAUCUGGAUAGGAAAAAGAAAACCUAUCCAGAGAAGGCACAUGAGGAUCACCCAUGUAAAAA [JL cataway mod 5] : 0.0412 µM

apparent KD of MS2 coat protein reported for this sequence AAAGGACGAGGAUAUACAUGAGGAUCACCCAUGUAAAAAACAUAAUAAAAGAACUUAUGUAGAAGGCGUCCAAA [Meechl Ex3 2] : 0.318 µM

apparent KD of MS2 coat protein reported for this sequence AAAAAGAGAGGAUAUACAUGAGGAUCACCCAUGUGACAUAAAAUAAAUAAAAUAAAGUGUAGAAGGCUCAAAAA [65%, Moding Exclusion3-cac2, 21] : 0.104 µM

apparent KD of MS2 coat protein reported for this sequence ACAGCGUGAGGAUAUACAUGAGGAUCACCCAUGUGAAACAGGAAAAACUGAAAGACAUGUAGAAGGCACGCUGA [Exclusion 3.3 (Janderson's 'Tweaking Eli' some more )] : 0.0287 µM

apparent KD of MS2 coat protein reported for this sequence AAAAACCUAGGAUAUACAUGAGGAUCACCCAUGUAAAAAAAAAAAAAGGGAAAAAAAAGUAGAAGGAGGAAAAA [Sekhemre Wadjkhaw Sobekemsaf I] : 0.0249 µM

apparent KD of MS2 coat protein reported for this sequence ACAGUUACAGGAUAUACAUGGAAAAAUAAAAAUAAAAAACUACAUGAGGAUCACCCAUGUAGAAGGGUAACUGA [Ex2 Design 197: Random 12F] : 0.0869 µM

====

tested on: MS2 coat protein; test: apparent KD of MS2 coat protein; designed switch direction (-1 OFF switch, 1 ON switch): -1; higher = weaker reporter binding; conditions: input ligand: microRNA oligo, concentration not stated
# if value of apparent KD of MS2 coat protein reaches 40 nM, tag true; if it stays below, tag false

**Q:** Is apparent KD of MS2 coat protein for GGUAGAGUGGUAGGAUAUCCGUCUGUUUCAGUCGGAGAAGGGCCACAGUCACUGGGUCCUAAUAUCAUGGAGACCUGAUCUACU [pwkr exNG1 F6.13] (Eterna round: R96, puzzle: Exclusion NG 1) at or above 40 nM?
**A:** true

**Q:** Is apparent KD of MS2 coat protein for CUGCUGGAGCUUUGCUUUGGUCGUACAUGAGGAUCACCCAUGUAGGAUAUGGUAGGCUUUGCUUACUAGAAGGAUAGAGUGGUC [salish99_ExNG3_r04_608] (Eterna round: R96, puzzle: Exclusion NG 3) at or above 40 nM?
**A:** true

**Q:** Is apparent KD of MS2 coat protein for GGAUAAAAGUGAGGAUAUGAGGAGAGAGAGAGAUCAGAAGGCACACAUGAGGAUCACCCAUGUGAGUUCUCGAUAAGAAACACG [Prohibition 55 - Jieux - Exclusion NG 1] (Eterna round: R96, puzzle: Exclusion NG 1) at or above 40 nM?
**A:** false

**Q:** Is apparent KD of MS2 coat protein for GUCAGCUCGUCAGGAUAUAUAUAUACAUGAGGAUCACCCAUGUUAGAUCAGCUUCGGCAGUAUAUAUAGAAGGGACGAGCUGAC [ENG2/15-B1] (Eterna round: R96, puzzle: Exclusion NG 2) at or above 40 nM?
**A:** true

**Q:** Is apparent KD of MS2 coat protein for CUCCGGCGUGUAGGAUAUGGUUCCGUUUUGGUUCCAGAAGGACAUGAGGAUCACCCAUGUACAUGUCGUCGGUCGUCACCGGGC [salish99_ExNG1_r04_214] (Eterna round: R96, puzzle: Exclusion NG 1) at or above 40 nM?
**A:** false

**Q:** Is apparent KD of MS2 coat protein for CAGUACUGAGGAUAUACAUGAGGAUCACCCAUGUGUUCCAGCUAGGAAACUAGCGAAAGUAGAAGGCAGUACUG [salish99_ex3_r3_068] (Eterna round: R96, puzzle: Exclusion 3) at or above 40 nM?
**A:** false

**Q:** Is apparent KD of MS2 coat protein for CAUGAUUGGCGAGGAUAUUGAUCUAGUUGGCGACGAGAAGGCGCCUGUCACAUGAGGAUCACCCAUGUGUGUCUGGUGAAUGAG [Ex NG1 #86] (Eterna round: R96, puzzle: Exclusion NG 1) at or above 40 nM?
**A:** true

**Q:** Is apparent KD of MS2 coat protein for UUUCUCUGGGCGUCUUCUUACAUGAGGAUCACCCAUGUUUCGCAGGAUAUGCUAUAGUGUUAGAUGCAGAAGGGCGUUUGUUUU [JR_ExcNG3_Sub079] (Eterna round: R96, puzzle: Exclusion NG 3) at or above 40 nM?
**A:** true

**Q:** Is apparent KD of MS2 coat protein for ACAUGAGGAUCACCCAUGUGACCACAAUGGCUGAUGUAACGACAGGAUAUGCGUGAAUAUCUAACGCAGAAGGGUCAUGACUGG [Deportation 61 - Jieux - Exclusion NG 3] (Eterna round: R96, puzzle: Exclusion NG 3) at or above 40 nM?
**A:** false
